Where do these numbers come from? They come from patent US20220363781A1.

measured on: monkey TSLP-His (cynomolgus monkey, Macaca fascicularis) (cynomolgus monkey (Macaca fascicularis))
Sequence (chain, as listed by the source): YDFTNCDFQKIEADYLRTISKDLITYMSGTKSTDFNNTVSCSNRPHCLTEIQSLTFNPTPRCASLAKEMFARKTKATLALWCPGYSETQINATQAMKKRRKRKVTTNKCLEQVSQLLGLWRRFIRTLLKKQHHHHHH
assay procedure: ELISA, monkey TSLP-His coated, antibody titrated
value kind: pEC50
Answers are plain numbers, as −log10 of the molar value.

Would you kindly share the measured pEC50 for Control antibody (control anti-TSLP antibody, chEMBL ID CHEMBL3707229) ?
9.47

----------
measured on: monkey TSLP-His (cynomolgus monkey, Macaca fascicularis) (cynomolgus monkey (Macaca fascicularis))
assay procedure: BLI (Fortebio), antibody on ProA sensor, monkey TSLP 1.5625-100 nM, 1:1 model
value kind: Kd (nM)
Give bare numbers, in nM.

Quick one: Kd of Control antibody (control anti-TSLP antibody, chEMBL ID CHEMBL3707229) ?
1.15
